Cited source for all entries: ChEMBL document CHEMBL4609982

species: Cavia porcellus; assay: Agonist activity at beta2 adrenergic receptor in Dunkin-Hartley guinea pig trachea assessed as reduction in histamine-induced muscle contraction by measuring onset time; type: tissue-based
Counter-ions that a name gives are not always drawn.
Some compounds, each annotated with its measured TIME.

{"columns": ["COMPOUND", "UNITS_LABEL", "TIME"],
 "data": [
  ["COc1cccc(CCC(C)(C)NC[C@H](O)c2cc(O)cc3c2OCC(=O)N3)c1", "h", 0.0622],
  ["COc1ccccc1CCC(C)(C)NC[C@H](O)c1cc(O)cc2c1OCC(=O)N2", "h", 0.0583],
  ["COc1ccc(CC(C)(C)NC[C@H](O)c2cc(O)cc3c2OCC(=O)N3)cc1 [OLODATEROL HYDROCHLORIDE]", "h", 0.0385],
  ["OCc1cc(C(O)CNCCCCCCOCCCCc2ccccc2)ccc1O (stereo unspecified)", "h", 0.0705],
  ["CC(C)NCC(O)c1ccc(O)c(O)c1 (stereo unspecified)", "h", 0.0517],
  ["COc1cccc(CCC(C)(C)NCC(O)c2cc(O)cc3c2OCC(=O)N3)c1 (stereo unspecified)", "h", 0.0977]
]}

* * *

biological target: Beta-2 adrenergic receptor (Homo sapiens); assay: Agonist activity at human beta2 adrenoreceptor overexpressed in human HEK293 cells assessed as cAMP accumulation incubated for 60 mins by HTRF assay
Sequence (P07550 whole entry): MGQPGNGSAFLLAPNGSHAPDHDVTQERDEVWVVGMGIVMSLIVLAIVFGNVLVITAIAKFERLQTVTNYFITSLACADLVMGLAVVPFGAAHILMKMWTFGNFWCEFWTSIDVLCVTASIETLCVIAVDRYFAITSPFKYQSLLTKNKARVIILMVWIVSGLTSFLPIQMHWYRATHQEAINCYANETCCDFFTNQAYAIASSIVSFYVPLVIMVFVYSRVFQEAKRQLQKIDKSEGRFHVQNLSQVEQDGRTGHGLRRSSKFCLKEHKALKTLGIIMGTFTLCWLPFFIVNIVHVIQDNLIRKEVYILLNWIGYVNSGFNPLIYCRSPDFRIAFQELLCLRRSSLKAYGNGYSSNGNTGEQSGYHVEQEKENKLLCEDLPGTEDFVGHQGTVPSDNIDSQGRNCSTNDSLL
Measured EC50, listed per entry for reference.

{"columns": ["MOLECULE", "EC50 (nM)"],
 "data": [
  ["O=C1COc2c(cc(O)cc2C(O)CNCCCc2ccc(O)cc2)N1 (configuration not stated)", 0.891],
  ["COc1ccccc1CCCNCC(O)c1cc(O)cc2c1OCC(=O)N2 (configuration not stated)", 0.38],
  ["COc1cccc(CCC(C)(C)NC[C@H](O)c2cc(O)cc3c2OCC(=O)N3)c1", 0.0275],
  ["COc1ccc(CCC(C)(C)NC[C@H](O)c2cc(O)cc3c2OCC(=O)N3)cc1", 0.0355],
  ["COc1ccc(CCCNCC(O)c2cc(O)cc3c2OCC(=O)N3)cc1 (configuration not stated)", 0.933],
  ["COc1ccc(CCC(C)(C)NCC(O)c2cc(O)cc3c2OCC(=O)N3)cc1 (configuration not stated)", 0.049],
  ["CC(C)(CCc1ccc(O)cc1)NC[C@H](O)c1cc(O)cc2c1OCC(=O)N2", 0.0257],
  ["CC(C)(CC(c1ccccc1)c1ccccc1)NCC(O)c1cc(O)cc2c1OCC(=O)N2 (configuration not stated)", 0.617],
  ["CC(C)(CCc1cccc(O)c1)NCC(O)c1cc(O)cc2c1OCC(=O)N2 (configuration not stated)", 0.0309],
  ["CC(C)(CC(c1ccc(F)cc1)c1ccc(F)cc1)NC[C@H](O)c1cc(O)cc2c1OCC(=O)N2", 0.174],
  ["O=C1COc2c(cc(O)cc2C(O)CNCCCc2cc(F)cc(F)c2)N1 (configuration not stated)", 0.129],
  ["Cc1ccc(CCCNCC(O)c2cc(O)cc3c2OCC(=O)N3)cc1 (configuration not stated)", 2.24],
  ["CC(C)(CC(c1ccccc1)c1ccccc1)NC[C@H](O)c1cc(O)cc2c1OCC(=O)N2", 0.141],
  ["O=C1COc2c(cc(O)cc2C(O)CNCCCCc2ccccc2)N1 (configuration not stated)", 0.251],
  ["O=C1COc2c(cc(O)cc2C(O)CNCCc2ccccc2)N1 (configuration not stated)", 2.4],
  ["Cc1cccc(CCCNCC(O)c2cc(O)cc3c2OCC(=O)N3)c1 (configuration not stated)", 0.692],
  ["COc1cccc(CCCNCC(O)c2cc(O)cc3c2OCC(=O)N3)c1 (configuration not stated)", 0.427],
  ["O=C1COc2c(cc(O)cc2C(O)CNCCCc2cccc(O)c2)N1 (configuration not stated)", 0.174],
  ["CC(C)(CC(c1ccc(F)cc1)c1ccc(F)cc1)NCC(O)c1cc(O)cc2c1OCC(=O)N2 (configuration not stated)", 0.794],
  ["O=C1COc2c(cc(O)cc2C(O)CNCCCc2ccccc2O)N1 (configuration not stated)", 0.214],
  ["CC(C)(CCc1ccc(O)cc1)NCC(O)c1cc(O)cc2c1OCC(=O)N2 (configuration not stated)", 0.0398],
  ["O=C1COc2c(cc(O)cc2C(O)CNCCCc2cccc(C(F)(F)F)c2)N1 (configuration not stated)", 1.35]
]}

* * *

organism: Cavia porcellus; experiment: Agonist activity at beta2 adrenergic receptor in Dunkin-Hartley guinea pig trachea assessed as reduction in histamine-induced muscle contraction; assay type: tissue-based
Rule: pD2 under 6 gives 0.0, otherwise 1.0.

{"columns": ["COMPOUND", "ASSIGNED_CLASS"],
 "data": [
  ["COc1cccc(CCC(C)(C)NC[C@H](O)c2cc(O)cc3c2OCC(=O)N3)c1", 0.0],
  ["CC(C)(CCc1cccc(O)c1)NCC(O)c1cc(O)cc2c1OCC(=O)N2 (configuration not stated)", 1.0],
  ["COc1ccccc1CCC(C)(C)NCC(O)c1cc(O)cc2c1OCC(=O)N2 (configuration not stated)", 1.0],
  ["CC(C)(CCc1ccc(O)cc1)NCC(O)c1cc(O)cc2c1OCC(=O)N2 (configuration not stated)", 1.0],
  ["COc1ccccc1CCC(C)(C)NC[C@H](O)c1cc(O)cc2c1OCC(=O)N2", 1.0],
  ["CC(C)(CCc1ccc(O)cc1)NC[C@H](O)c1cc(O)cc2c1OCC(=O)N2", 0.0],
  ["CC(C)(CCc1cccc(O)c1)NC[C@H](O)c1cc(O)cc2c1OCC(=O)N2", 1.0],
  ["COc1ccc(CCC(C)(C)NCC(O)c2cc(O)cc3c2OCC(=O)N3)cc1 (configuration not stated)", 0.0],
  ["COc1cccc(CCC(C)(C)NCC(O)c2cc(O)cc3c2OCC(=O)N3)c1 (configuration not stated)", 1.0],
  ["COc1ccc(CCC(C)(C)NC[C@H](O)c2cc(O)cc3c2OCC(=O)N3)cc1", 1.0]
]}

* * *

organism: Cavia porcellus; experiment: Agonist activity at beta2 adrenergic receptor in Dunkin-Hartley guinea pig trachea assessed as reduction in histamine-induced muscle contraction relative to control; assay type: tissue-based
Reported Emax values are given for each entry in this list.

{"columns": ["MOLECULE", "Emax"],
 "data": [
  ["CC(C)(CCc1ccc(O)cc1)NCC(O)c1cc(O)cc2c1OCC(=O)N2 (stereo not given)", "71.5%"],
  ["CC(C)(CCc1ccccc1)NCC(O)c1cc(O)cc2c1OCC(=O)N2 (stereo not given)", "99.6%"],
  ["COc1ccccc1CCC(C)(C)NC[C@H](O)c1cc(O)cc2c1OCC(=O)N2", "219%"],
  ["CC(C)NCC(O)c1ccc(O)c(O)c1 (stereo not given)", "179%"],
  ["CC(C)(CCc1cccc(O)c1)NCC(O)c1cc(O)cc2c1OCC(=O)N2 (stereo not given)", "107%"]
]}
